target: hCGRP receptor (CALCRL:RAMP1) (Homo sapiens, UniProt O60894+Q16602); construct: host or cells: GeneBLAzer CALCRL:RAMP1-CRE-bla Freestyle 293F; assay: CGRP receptor antagonist activity measured by cAMP assay (HTRF); assay type: cell-based; conditions: % MPE: percent of the maximal possible effect; agonist human α-CGRP; read-out: hCGRP-R Efficacy Antag (%) Ave
Sequence (O60894 27-148, one chain of several): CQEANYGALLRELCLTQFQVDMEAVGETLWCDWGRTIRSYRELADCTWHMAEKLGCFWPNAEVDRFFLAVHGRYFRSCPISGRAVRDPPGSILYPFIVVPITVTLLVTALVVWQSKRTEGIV
Numbered stars: 1 amine (or outer) side, 2 acyl side, 3 side chain; on linkers, the order of the positions; unused ones are H or OH. Bridge positions count the residues as written; N and C are the ends. Square brackets hold non-standard residues; d marks the D form. Peptide text beside a SMILES is read from it. * marks the point of attachment. Phe(3-CH2NH2) = O=C([C@H](Cc1cccc(CN[*:3])c1)N[*:1])[*:2]; Phe(2-CONH2) = NC(=O)c1ccccc1C[C@H](N)C(=O)O; Triazol3yl(1,2,4-5-NH2) = Nc1nc(*)n[nH]1; Oxazole2carbonyl = O=C(c1ncco1)*; 3Pal = N[C@@H](Cc1cccnc1)C(=O)O; ΔPro = O=C(O)[C@@H]1C=CCN1; Dab = NCC[C@H](N)C(=O)O; X6 = O=C(c1ccncn1)*
assay-readout: Emax (%)
// return numeric value only (unit: %, not printed)

| compound | assay-target | Emax, % |
| --- | --- | --- |
| CC(C)[C@@H]1NC(=O)[C@H](CC(=O)O)NC(=O)[C@H](CCCNC(=N)N)NC(=O)[C@@H](NC(=O)[C@H](Cc2ccccc2C(N)=O)NC(=O)[C@H](NC(=O)c2ccncn2)C(C)C)CSSC[C@@H](C(=O)N[C@@H](Cc2cccnc2)C(N)=O)NC(=O)[C@H](Cc2cccc(CN)c2)NC(=O)[C@@H]2C=CCN2C(=O)CNC1=O [Compound 31] (X6-[dV][Phe(2-CONH2)]CRDVG[ΔPro][Phe(3-CH2NH2)]C[3Pal]-NH2; disulfide 3-10) | hCGRP receptor (CALCRL:RAMP1) (Homo sapiens, UniProt O60894+Q16602) | 100 |

Retrieve Emax on hCGRP receptor (CALCRL:RAMP1) (Homo sapiens, UniProt O60894+Q16602); query CC(C)[C@@H]1NC(=O)[C@H](CC(=O)O)NC(=O)[C@H](CCNc2nc(N)n[nH]2)NC(=O)[C@@H](NC(=O)[C@H](Cc2ccccc2C(N)=O)NC(=O)[C@H](NC(=O)c2ncco2)C(C)C)CSSC[C@@H](C(=O)N[C@@H](Cc2cccnc2)C(N)=O)NC(=O)[C@H](Cc2cccnc2)NC(=O)[C@@H]2CCCN2C(=O)CNC1=O [Compound 42] (Oxazole2carbonyl-[dV][Phe(2-CONH2)]C[Dab](Triazol3yl(1,2,4-5-NH2))DVGP[3Pal]C[3Pal]-NH2; disulfide 3-10) 100

====

Reported Emax values follow for various molecules
target: hAM2 receptor (CALCRL:RAMP3) (Homo sapiens, UniProt O60896+Q16602); construct: expressed in transfected cells; host or cells: GeneBLAzer CALCRL:RAMP3-CRE-bla Freestyle 293F; experiment: AM2 receptor antagonist activity measured by cAMP assay (HTRF); type: cell-based; details: % MPE: percent of the maximal possible effect; agonist human adrenomedullin; read-out: hAM2-R Efficacy Antag (%) Ave
Sequence (Q16602 23-461): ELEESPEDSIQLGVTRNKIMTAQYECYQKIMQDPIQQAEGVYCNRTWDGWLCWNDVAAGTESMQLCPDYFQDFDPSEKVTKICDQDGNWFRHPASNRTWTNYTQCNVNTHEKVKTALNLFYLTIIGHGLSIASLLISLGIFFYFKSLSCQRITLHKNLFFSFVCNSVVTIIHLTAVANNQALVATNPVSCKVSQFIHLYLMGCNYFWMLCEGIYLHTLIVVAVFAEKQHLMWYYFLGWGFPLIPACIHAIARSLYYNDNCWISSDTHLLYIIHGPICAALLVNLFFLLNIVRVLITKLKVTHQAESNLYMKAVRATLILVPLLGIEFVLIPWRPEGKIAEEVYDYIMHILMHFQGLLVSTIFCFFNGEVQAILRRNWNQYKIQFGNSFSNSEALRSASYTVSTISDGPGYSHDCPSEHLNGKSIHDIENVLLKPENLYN
Sequence (O60896 24-148): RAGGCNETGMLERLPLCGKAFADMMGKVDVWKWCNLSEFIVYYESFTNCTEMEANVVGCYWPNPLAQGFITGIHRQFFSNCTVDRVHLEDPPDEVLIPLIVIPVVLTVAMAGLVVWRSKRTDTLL
Bridge positions count the residues as written; N and C are the ends. Square brackets hold non-standard residues; d marks the D form. Peptide text beside a SMILES is read from it. * marks the point of attachment. Phe(2-CONH2) = NC(=O)c1ccccc1C[C@H](N)C(=O)O; Phe(4-CH2NH2) = NCc1ccc(C[C@H](N)C(=O)O)cc1; Lys(iPr) = CC(C)NCCCC[C@H](N)C(=O)O; Benzoyl(4-F) = O=C(c1ccc(F)cc1)*; Oxazole2carbonyl = O=C(c1ncco1)*; 3Pal = N[C@@H](Cc1cccnc1)C(=O)O
// return numeric value only (unit: %, not printed)

Look up and state reported Emax for CC(C)NCCCC[C@@H]1NC(=O)[C@@H](NC(=O)[C@H](Cc2ccccc2C(N)=O)NC(=O)[C@H](NC(=O)c2ncco2)C(C)C)CSSC[C@@H](C(=O)N[C@@H](Cc2cccnc2)C(N)=O)NC(=O)[C@H](Cc2cccnc2)NC(=O)[C@@H]2CCCN2C(=O)CNC(=O)[C@H](C(C)C)NC(=O)[C@H](CC(=O)O)NC1=O [Compound 41] (Oxazole2carbonyl-[dV][Phe(2-CONH2)]C[Lys(iPr)]DVGP[3Pal]C[3Pal]-NH2; disulfide 3-10) 97

Look up and state reported Emax for CC(C)[C@@H]1NC(=O)[C@H](CC(=O)O)NC(=O)[C@H](CCCNC(=N)N)NC(=O)[C@@H](NC(=O)[C@H](Cc2ccc(O)cc2)NC(=O)[C@H](NC(=O)c2ccc(F)cc2)C(C)C)CSSC[C@@H](C(=O)N[C@@H](Cc2cccnc2)C(N)=O)NC(=O)[C@H](Cc2ccc(CN)cc2)NC(=O)[C@@H]2CCCN2C(=O)CNC1=O [Compound 20] ({Benzoyl(4-F)}-[dV]YCRDVGP[Phe(4-CH2NH2)]C[3Pal]-NH2; disulfide 3-10) 100
